Quick reference for logD among some molecules
# test-protocol: Lipophilicity, log D of the compound
# Assay type: physicochemical
# condition-details: octanol/water

{"columns": ["line-notation", "logD"],
 "data": [
  ["O=C(Cc1ccc(Cl)cc1Cl)NCc1ccc(O)c(O)c1", 2.7],
  ["O=c1[nH]cc(-c2ccc(F)cc2)cc1O", 2]
]}

###

# target-desc: DNA excision repair protein ERCC-1/DNA repair endonuclease XPF (Homo sapiens, UniProt P07992+Q92889)
# Sequence (P07992 whole entry): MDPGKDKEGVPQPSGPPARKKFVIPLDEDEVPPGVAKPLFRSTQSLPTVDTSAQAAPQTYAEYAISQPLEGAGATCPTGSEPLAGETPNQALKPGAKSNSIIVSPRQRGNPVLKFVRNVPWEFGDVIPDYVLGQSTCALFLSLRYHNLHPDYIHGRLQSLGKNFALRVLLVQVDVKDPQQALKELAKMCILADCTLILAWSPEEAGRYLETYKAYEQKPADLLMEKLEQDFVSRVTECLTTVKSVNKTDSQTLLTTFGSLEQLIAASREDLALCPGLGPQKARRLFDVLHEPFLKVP
# Sequence (Q92889 whole entry): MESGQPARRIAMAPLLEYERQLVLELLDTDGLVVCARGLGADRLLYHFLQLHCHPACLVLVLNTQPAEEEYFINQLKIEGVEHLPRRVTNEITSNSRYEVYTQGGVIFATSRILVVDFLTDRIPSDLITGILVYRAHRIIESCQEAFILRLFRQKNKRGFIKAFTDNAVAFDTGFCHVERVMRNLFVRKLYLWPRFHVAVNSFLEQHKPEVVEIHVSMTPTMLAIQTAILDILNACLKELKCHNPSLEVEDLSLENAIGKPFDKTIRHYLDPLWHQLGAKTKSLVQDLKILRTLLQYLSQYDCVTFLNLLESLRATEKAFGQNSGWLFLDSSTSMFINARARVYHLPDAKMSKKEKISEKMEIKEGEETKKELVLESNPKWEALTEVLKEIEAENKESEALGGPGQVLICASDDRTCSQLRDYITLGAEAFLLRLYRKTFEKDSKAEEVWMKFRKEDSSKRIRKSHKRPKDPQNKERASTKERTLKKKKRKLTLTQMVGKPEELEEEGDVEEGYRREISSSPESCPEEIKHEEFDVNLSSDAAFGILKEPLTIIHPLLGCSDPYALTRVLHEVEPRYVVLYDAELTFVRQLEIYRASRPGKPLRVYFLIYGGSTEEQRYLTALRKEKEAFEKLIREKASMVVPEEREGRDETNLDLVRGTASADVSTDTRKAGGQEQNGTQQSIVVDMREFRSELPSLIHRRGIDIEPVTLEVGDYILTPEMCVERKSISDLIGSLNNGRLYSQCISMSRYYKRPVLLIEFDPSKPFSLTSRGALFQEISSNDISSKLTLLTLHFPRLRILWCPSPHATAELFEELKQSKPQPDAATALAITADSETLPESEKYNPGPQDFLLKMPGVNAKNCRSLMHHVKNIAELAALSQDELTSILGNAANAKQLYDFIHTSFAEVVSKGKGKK
# test-protocol: Inhibition of ERCC1-XPF (unknown origin) by high-throughput fluorescence based in-vitro endonuclease assay
# Format: protein-complex assay

{"columns": ["compound", "display-unit", "relation-sign", "IC50"],
 "data": [
  ["O=C(Cc1ccc(Cl)cc1Cl)NCc1c[nH]c(=O)c(O)c1", "µM", "=", 100],
  ["O=C(CNc1ccccc1)NCc1ccc(O)c(O)c1", "µM", "=", 0.9],
  ["O=C(NCc1ccc(O)c(O)c1)C1(c2ccccc2)CCCCC1", "µM", "=", 1.6],
  ["O=C(NCc1ccc(O)c(O)c1)C1CCN(Cc2ccc(F)cc2)CC1", "µM", "=", 5.8],
  ["O=C(CC1CCCCC1)NCc1ccc(O)c(O)c1", "µM", "=", 1.4],
  ["N#Cc1cccc(CC(=O)NCc2ccc(O)c(O)c2)c1", "µM", "=", 4],
  ["O=c1[nH]ccc(-c2ccc(F)cc2)c1O", "µM", ">", 100],
  ["CC(C)C(=O)NCc1ccc(O)c(O)c1", "µM", "=", 24],
  ["O=c1[nH]cc(-c2ccc(F)c(Cl)c2)cc1O", "µM", "=", 13.1],
  ["O=C(Cc1ccc(Cl)cc1Cl)N1CCc2cc(O)c(O)cc2C1", "µM", "=", 1],
  ["O=C(NCc1ccc(O)c(O)c1)C1CCCC1", "µM", "=", 24.6],
  ["CC(C(=O)NCc1ccc(O)c(O)c1)c1ccccc1 (configuration not stated)", "µM", "=", 1.8]
]}
